Cited source for all entries: patent US11840686B2

system: human PKK mRNA; experiment: Dose-dependent antisense inhibition of human PKK in HepaRG cells, 0.12-10.00 uM (Example 4); assay type: cell-based; settings: Table 32, 10.00 μM, electroporation, ~16 h
Strand notation (5' to 3'): a small letter for the sugar, then the base; units joined by * are phosphorothioate-linked, units joined directly phosphodiester-linked; [ ] holds rarer units or linkages, { } end groups; capitals alone tell only the bases. e = 2'-O-(2-methoxyethyl) (MOE); [5mC] = 5-methylcytosine; d = 2'-deoxy (DNA)
What percent inhibition of PKK at 10.00 μM was measured for each of the following?
Enter your answer as a number in %; do not include the unit.

Endpoint output: percent inhibition of PKK at 10.00 μM of 531078 (eA*eG*e[5mC]*eA*eG*d[5mC]*dT*d[5mC]*dT*dG*dA*dG*dT*dG*d[5mC]*eA*e[5mC]*eT*eG*eT; antisense) [compound 531078] . Value?
92

Endpoint output: percent inhibition of PKK at 10.00 μM of 531005 (e[5mC]*eT*e[5mC]*eA*eA*dA*dG*dA*dG*dT*dA*dA*d[5mC]*d[5mC]*dA*eG*eA*eG*e[5mC]*eT; antisense) [compound 531005] . Value?
77

Endpoint output: percent inhibition of PKK at 10.00 μM of 531231 (eT*eA*eT*e[5mC]*eA*d[5mC]*dT*dG*dT*dA*d[5mC]*dT*dA*dG*dT*eT*eT*e[5mC]*e[5mC]*eT) [compound 531231] . Value?
94

Endpoint output: percent inhibition of PKK at 10.00 μM of 486847 (antisense eA*eG*eG*e[5mC]*eA*dT*dA*dT*dT*dG*dG*dT*dT*dT*dT*eT*eG*eG*eA*eA) [compound 486847] . Value?
87

Endpoint output: percent inhibition of PKK at 10.00 μM of 530965 (antisense eG*eG*e[5mC]*eA*e[5mC]*dA*dG*dG*dG*d[5mC]*dT*dT*d[5mC]*dA*dG*eT*eG*eA*eG*eA) [compound 530965] . Value?
91

* * *

test system: human PKK mRNA; experiment: Antisense inhibition of human PKK mRNA in HepaRG cells, 1,000 nM, MOE/deoxy/cEt oligonucleotides (Example 3); assay type: cell-based; conditions: HepaRG cells, electroporation with 1,000 nM antisense oligonucleotide, approx. 24 hours, PKK mRNA by RT-PCR (RTS3454), relative to untreated control cells; Table 26 experiment
Strand notation (5' to 3'): a small letter for the sugar, then the base; units joined by * are phosphorothioate-linked, units joined directly phosphodiester-linked; [ ] holds rarer units or linkages, { } end groups; capitals alone tell only the bases. e = 2'-O-(2-methoxyethyl) (MOE); k = constrained ethyl (cEt); [5mC] = 5-methylcytosine; d = 2'-deoxy (DNA)
measure: % inhibition
Remember to put the unit after the number in your answer.

Endpoint output: % inhibition of 548234 (eT*eT*kA*dT*dT*dG*dT*dA*dG*d[5mC]*d[5mC]*dA*dT*kA*k[5mC]*eA; antisense) [compound 548234] . Value?
17%

Endpoint output: % inhibition of 548238 (eA*e[5mC]*kT*d[5mC]*dG*d[5mC]*d[5mC]*dT*dT*dT*dG*dT*dG*kA*k[5mC]*eT; antisense) [compound 548238] . Value?
31%

Endpoint output: % inhibition of 548297 (eA*e[5mC]*kT*d[5mC]*dT*d[5mC]*dA*dA*dG*d[5mC]*dT*d[5mC]*d[5mC]*kA*k[5mC]*eG; antisense) [compound 548297] . Value?
32%

Endpoint output: % inhibition of 548258 (antisense e[5mC]*eA*kA*dG*dT*dG*d[5mC]*dT*d[5mC]*d[5mC]*d[5mC]*d[5mC]*dA*kT*kG*e[5mC]) [compound 548258] . Value?
0%

Endpoint output: % inhibition of 548247 (antisense e[5mC]*eG*kA*dT*dT*dT*dT*d[5mC]*d[5mC]*dA*dT*dG*d[5mC]*kA*kT*eA) [compound 548247] . Value?
56%

* * *

test system: human PKK mRNA; assay: Antisense inhibition of human PKK mRNA in HepaRG cells, 1,000 nM, MOE/deoxy/cEt oligonucleotides (Example 3); assay type: cell-based; settings: HepaRG cells, electroporation with 1,000 nM antisense oligonucleotide, approx. 24 hours, PKK mRNA by RT-PCR (RTS3454), relative to untreated control cells; Table 26 experiment
Strand notation (5' to 3'): a small letter for the sugar, then the base; units joined by * are phosphorothioate-linked, units joined directly phosphodiester-linked; [ ] holds rarer units or linkages, { } end groups; capitals alone tell only the bases. e = 2'-O-(2-methoxyethyl) (MOE); k = constrained ethyl (cEt); [5mC] = 5-methylcytosine; d = 2'-deoxy (DNA)
measure: % inhibition (%)
Enter your answer as a number in %; do not include the unit.

Endpoint output: % inhibition of 548294 (eG*eT*kG*dT*dG*d[5mC]*dA*d[5mC]*dT*dT*dT*d[5mC]*dT*kG*kG*eT; antisense) [compound 548294] . Value?
33

Endpoint output: % inhibition of 548271 (antisense eT*eT*k[5mC]*dA*d[5mC]*dT*dT*dA*d[5mC]*d[5mC]*dA*d[5mC]*dA*kG*kG*eA) [compound 548271] . Value?
56

Endpoint output: % inhibition of 548290 (eG*eA*kG*d[5mC]*dA*d[5mC]*dT*d[5mC]*dT*dT*dA*dT*dT*kA*kG*e[5mC]; antisense) [compound 548290] . Value?
31

Endpoint output: % inhibition of 548291 (e[5mC]*e[5mC]*kT*dG*dT*dT*dA*dG*dA*dG*dT*dT*dG*kG*k[5mC]*e[5mC]; antisense) [compound 548291] . Value?
35

* * *

test system: human PKK mRNA; experiment: Antisense inhibition of human PKK mRNA in HepaRG cells, 1,000 nM, MOE/deoxy/cEt oligonucleotides (Example 3); type: cell-based; details: Table 19; HepaRG cells, electroporation with 1,000 nM antisense oligonucleotide, approximately 24 hours; PKK mRNA by RT-PCR (RTS3454), relative to untreated control cells
Strand notation (5' to 3'): a small letter for the sugar, then the base; units joined by * are phosphorothioate-linked, units joined directly phosphodiester-linked; [ ] holds rarer units or linkages, { } end groups; capitals alone tell only the bases. e = 2'-O-(2-methoxyethyl) (MOE); k = constrained ethyl (cEt); [5mC] = 5-methylcytosine; d = 2'-deoxy (DNA)
What % inhibition was measured for each of the following?
Enter your answer as a number in %; do not include the unit.

Find the measured % inhibition: item 548111 (antisense eG*eA*k[5mC]*dT*dG*d[5mC]*dA*dT*d[5mC]*dT*dG*dA*dG*k[5mC]*kT*eT) [compound 548111] , target or system human PKK mRNA.
53

Find the measured % inhibition: item 548143 (e[5mC]*eA*k[5mC]*dT*d[5mC]*dT*d[5mC]*d[5mC]*dA*dT*dG*d[5mC]*dT*kT*kT*eG; antisense) [compound 548143] , target or system human PKK mRNA.
39

Find the measured % inhibition: item 548144 (eA*eT*kG*d[5mC]*d[5mC]*dA*d[5mC]*dT*d[5mC]*dT*d[5mC]*d[5mC]*dA*kT*kG*e[5mC]; antisense) [compound 548144] , target or system human PKK mRNA.
52

Find the measured % inhibition: item 548141 (eG*e[5mC]*kA*dG*dA*dT*dG*dA*dG*dG*dA*d[5mC]*d[5mC]*k[5mC]*k[5mC]*e[5mC]; antisense) [compound 548141] , target or system human PKK mRNA.
66

Find the measured % inhibition: item 548095 (antisense eT*eG*kT*dT*dT*dG*d[5mC]*dA*dA*dA*d[5mC]*dT*dA*kA*kG*eG) [compound 548095] , target or system human PKK mRNA.
35

Find the measured % inhibition: item 548122 (antisense e[5mC]*eT*k[5mC]*dT*dG*dG*dA*d[5mC]*dT*dG*d[5mC]*dT*dT*k[5mC]*kT*e[5mC]) [compound 548122] , target or system human PKK mRNA.
55

Find the measured % inhibition: item 548087 (antisense eA*e[5mC]*kT*dA*dA*dG*dG*dG*dA*d[5mC]*d[5mC]*dA*d[5mC]*k[5mC]*kT*eG) [compound 548087] , target or system human PKK mRNA.
24

Find the measured % inhibition: item 548088 (antisense eA*eA*k[5mC]*dT*dA*dA*dG*dG*dG*dA*d[5mC]*d[5mC]*dA*k[5mC]*k[5mC]*eT) [compound 548088] , target or system human PKK mRNA.
27

Find the measured % inhibition: item 548077 (eA*eT*kT*dT*dG*dT*dT*dA*d[5mC]*d[5mC]*dA*dA*dA*kG*kG*eA; antisense) [compound 548077] , target or system human PKK mRNA.
51

Find the measured % inhibition: item 548150 (e[5mC]*eA*kG*dA*d[5mC]*dA*dT*dT*dG*dT*d[5mC]*d[5mC]*dT*k[5mC]*kA*eG; antisense) [compound 548150] , target or system human PKK mRNA.
60

Find the measured % inhibition: item 548074 (e[5mC]*e[5mC]*kT*dT*dT*d[5mC]*dT*d[5mC]*d[5mC]*dT*dT*d[5mC]*dG*kA*kG*eA; antisense) [compound 548074] , target or system human PKK mRNA.
0
